experiment: NCI Yeast Anticancer Drug Screen. Data for the bub3 strain (AID 167); conditions: S. cerevisiae bub3 mutant strain, at 50.0 µM, stronger effect = higher value
This is part of a sample that, as a whole, favours compounds with a hit. Of some 79,000 tested, about 15% had one in any assay.
# growth inhibition values compiled below

- COMPOUND: "CCCCN(CCCC)C(C)=O"
  growth inhibition, %: 5.15
- COMPOUND: "CC(=O)C1=C(O)C2(O)C(=O)c3c(c(C)c4ccc(C)c(O)c4c3O)CC2C(N)C1=O (stereo unspecified)"
  growth inhibition, %: 19
- COMPOUND: "CC(=N/O)/C(C)=C/c1ccccc1"
  growth inhibition, %: 6.25
- COMPOUND: "Cc1ccc(/C=N/NS(=O)(=O)c2ccccc2)cc1"
  growth inhibition, %: 12.1
- COMPOUND: "O=[N+]([O-])c1ccc(Cn2on2-c2ccccc2)cc1"
  growth inhibition, %: 24.4
- COMPOUND: "CCOC(=O)CSc1nnc(N)s1"
  growth inhibition, %: -6.75
- COMPOUND: "CCOC(=O)Cn1ccc[n+]1CC(=O)c1ccccc1"
  growth inhibition, %: -15.4
- COMPOUND: "CC(=O)Nc1cc([N+](=O)[O-])c2[nH]c(=O)c3ccccc3c2c1"
  growth inhibition, %: -3.2
- COMPOUND: "COc1ccn(C2OC(=O)C(C)(C)C2=O)c(=O)n1 (stereo unspecified)"
  growth inhibition, %: -9.4
- COMPOUND: "CC1CCC2C(C(=O)O[C@H]3C4C=CO[C@@H](OC5OC(CO)C(O)C(O)C5O)C4[C@@]4(CO)O[C@@H]34)=CO[C@@H](OC3OC(CO)C(O)C(O)C3O)C12 (stereo partly specified)"
  growth inhibition, %: -12.8
- COMPOUND: "CCOC(=O)CN1C(=O)C(=O)N(c2ccc(OC)c3ccccc23)C1=O"
  growth inhibition, %: -1.3

Attribution: PubChem BioAssay (NCI)
